study-target: T1, CRH (NT-Biotin) (human and mouse, not fully specified; biotin at the N-terminus)
T1 construct: also called Biotin-CRH; N-terminally biotinylated corticotropin-releasing hormone
T1 peptide: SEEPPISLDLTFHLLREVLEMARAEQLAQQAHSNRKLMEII
test-protocol: ELISA, N-terminally biotinylated CRH on streptavidin-coated plate
I'd be grateful if you could share measured EC50 for these entries.
Numbers only, in nM.

INSERT INTO results (binder, reported_value) VALUES
  ('PR302341 (antibody, human IgG1, kappa, V domains shown, Mouse variable domains, expressed recombinantly with human IgG1 wildtype Fc; also called Series 10 mAb) VH: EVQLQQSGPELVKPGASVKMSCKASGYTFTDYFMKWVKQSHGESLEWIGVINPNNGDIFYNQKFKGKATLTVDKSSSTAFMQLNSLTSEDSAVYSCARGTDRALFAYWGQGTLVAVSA VL: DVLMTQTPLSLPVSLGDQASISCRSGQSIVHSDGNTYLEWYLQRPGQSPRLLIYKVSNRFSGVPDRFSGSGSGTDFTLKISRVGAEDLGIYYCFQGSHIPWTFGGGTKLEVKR', 0.023),
  ('PR301803 (antibody, human IgG1, kappa, V domains shown, Mouse variable domains, expressed recombinantly with human IgG1 wildtype Fc; also called Series 5 mAb) VH: EVKLEESGGGLVQPGGSMKLSCVASGFTFNNYWMNWVRQSPEKGLEWVAEIRLKSNNYATHYAESLKGRFTISRDDSKSSVYLQMNNLRAEDTGIYYCTVGTLVYWGQGTLVTVSA VL: DIVLTQSPASLVVSLGQRATISCRASQSVSTSTYNYMHWYQQKPGQPPKLLIKFASNLESGVPARFSGSGSGTDFTLNIHPVEEEDTATFYCQHSWEIPYTFGGGTKLEIKR', 0.021),
  ('PR302332 (antibody, human IgG1, kappa, V domains shown, Mouse variable domains, expressed recombinantly with human IgG1 wildtype Fc; also called Series 7 mAb) VH: QIQLVQSGPELKKPGETVKISCKASGYTFTNFGMHWVKQAPGKVLKWMGWINTYTGEPIYAADFKGRFAFSLETSASTAYLQINNLKNEDTATYFCSRSTMITTGGVFAYWGQGTLVTVSA VL: DVLMAQTPLSLPVSLGDQASISCRSSQSIVHSDGNTYLEWYLQKPGQSPKLLIYKVSNRFSGVPDRFSGSGSGTDFTLKISRVEAEDLGVYYCFQGSHVPWTFGGGTKLEIKR', 0.107),
  ('PR301788 (antibody, human IgG1, kappa, V domains shown, Mouse variable domains, expressed recombinantly with human IgG1 wildtype Fc; also called Series 5 mAb) VH: EMKLEESGGGLVQPGGSMKLSCVASGFTFSNYWMNWVRQSPEKGLEWVAEIRLKSNNYATHYAESVKGRFTISRDDSKSSVYLQMNNLRAEDTGIYYCTIGTLVYWGQGTLVTVSA VL: DIVLTQSPASLAVSLGQRATISCRASQSVSTSTYNYMHWFQQKPGQPPKLLIKFASNLESGVPARFSGSGSGTDFTLNIHPVEEEDTATFYCQHSWEIPYTFGGGTKLEIKR', 0.018),
  ('PR302312 (antibody, human IgG1, kappa, V domains shown, Mouse variable domains, expressed recombinantly with human IgG1 wildtype Fc; also called Series 10 mAb) VH: EVQLQQSGPELVKPGASVKMSCKASGYTFTDYFMKWMKQSHGKSLEWIGVINPNNGDTFYNQNFKGKATLTVDKSSSTAYMQLNSLTSEDSAVYYCTRGTARALFAYWGQGTLVTVSA VL: DVLMTQTPLSLPVSLGDQASISCRSSQSIVHSDGNTYLEWYLQRPGQSPKLLIYKVSNRFSGVPDRFSGSGSGTDFTLKISRVGAEDLGVYYCFQGSHVPWTFGGGTKLEVKR', 0.025),
  ('PR301780 (antibody, human IgG1, kappa, V domains shown, Mouse variable domains, expressed recombinantly with human IgG1 wildtype Fc; also called Series 7 mAb) VH: QIQLVQSGPELKKPGETVKISCKASGYTFTNFGLNWVKQAPGKGLKWMGWINTYTGEPTYTDDFKGRFAFSLETSASTAYLQINNLKKEDTATYFCARGTYRDDGAWFAYWGQGTLVTVSA VL: DVLMTQTPLSLPVSLGDQASISCRSSQIIVHSNGNTYLEWYLQKPGQSPKLLIYKVSNRFSGVPDRFSGSGSGTDFTLKISRVEAEDLGVYHCFQGSHVPWTFGGGTKLEIKR', 0.938);

Alright, here's another binder for you.
// query EC50 value for entry PR302324 (antibody, human IgG1, kappa, V domains shown, Mouse variable domains, expressed recombinantly with human IgG1 wildtype Fc; also called Series 10 mAb) VH: EVQLQQSGPELVKPGASVKMSCKASGYTFTDYFMKWVKQSHGGSLEWIGVISPNNGDTFYNQKFKGKATLTVDKSSSTAFMQLNSLTSEDSAVYSCARGTDRALFAYWGQGTLVTVSA VL: DVLMTQTPLSLPVSLGDQASISCRSSQSIVHSDGNTYLEWYLQRPGQSPKLLIYKVSNRFSGVPDRFSGSGSGTDFTLKISRVGAEDLGVYYCFQGSHIPWTFGGGTKLEVKR
0.019
